- System: CYP3A4 (Homo sapiens, UniProt P08684)
- Sequence (P08684 whole entry): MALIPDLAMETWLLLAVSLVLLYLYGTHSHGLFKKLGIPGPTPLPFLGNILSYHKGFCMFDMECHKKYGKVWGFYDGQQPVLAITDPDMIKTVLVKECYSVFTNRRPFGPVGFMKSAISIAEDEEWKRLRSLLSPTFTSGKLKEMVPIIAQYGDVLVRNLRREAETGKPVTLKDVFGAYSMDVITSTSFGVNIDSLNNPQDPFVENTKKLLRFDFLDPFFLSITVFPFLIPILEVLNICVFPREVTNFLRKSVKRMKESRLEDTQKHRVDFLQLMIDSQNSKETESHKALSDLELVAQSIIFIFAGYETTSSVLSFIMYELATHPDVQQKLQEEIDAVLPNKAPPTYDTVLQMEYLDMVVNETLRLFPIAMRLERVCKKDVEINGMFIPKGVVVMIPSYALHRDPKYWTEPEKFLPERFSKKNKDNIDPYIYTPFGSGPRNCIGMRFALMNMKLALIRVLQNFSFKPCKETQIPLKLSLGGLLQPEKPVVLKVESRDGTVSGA
- Protocol Details: Determination of IC50 against CYP3A4 by measurement of inhibition of midazolam metabolism (human liver microsomes, 1-hydroxymidazolam by LC-MS/MS)
- Assay type: biochemical
- Parameters: 0.1 mg/mL human liver microsomes
- Condition Info: 2 μM midazolam, 0.1 mg/mL human liver microsomes
- Method: 3. Determination of IC50 Against CYP3A4 by Measurement of Inhibition of Midazolam Metabolism This assay was performed using a standard 96 well plate design. […] Quantitation of metabolite peak area ratio against internal standard is determined by LC-MS/MS analysis. The production of 1-hydroxymidazolam from midazolam metabolism is determined after incubation for eight minutes by comparison to a standard curve generated for the metabolite. […]
Binary call on IC50 with cut-off 40 nM: strictly below means YES, and equality or higher means NO.

Solved cases (3 shown):
Input line: Confirm or reject: IC50 of COc1cncc(NS(=O)(=O)c2ccccc2C(=O)NCCc2ccccc2Cl)c1 lies strictly below 40 nM
Output line: YES

Input line: Another compound to check: COc1cncc(NS(=O)(=O)c2ccc(OC3CCNCC3)cc2C(=O)NCc2ccc(F)cc2)c1
Output line: YES

Input line: How about this compound: COc1cncc(NS(=O)(=O)c2ccccc2C(=O)NCc2cccc(Cl)c2F)c1
Output line: YES

Further cases:
Input line: State whether 40 nM exceeds IC50 recorded for O=C(c1ccccc1S(=O)(=O)Nc1cncc(Br)c1)N1CCCCC1 .
Output line: NO

Input line: Next compound up: CCCCC(CO)NC(=O)c1ccccc1S(=O)(=O)Nc1cncc(OC)c1 (stereo not shown)
Output line: YES

Input line: Here is the next compound: Cc1ccncc1NS(=O)(=O)c1ccccc1C(=O)N(C)CCC(C)C
Output line: YES

Input line: What do you get for COc1cncc(NS(=O)(=O)c2ccccc2C(=O)NC(C)(C)C)c1 ?
Output line: YES

Input line: And what about the compound O=C(NCc1cccc(F)c1F)c1ccccc1S(=O)(=O)Nc1cccnc1 ?
Output line: YES

###

- System: CYP3A4 (Homo sapiens, UniProt P08684)
- Protocol Details: Determination of IC50 against CYP3A4 by measurement of inhibition of testosterone metabolism (human liver microsomes, 6-β-OH-testosterone by LC-MS/MS)
- Type: biochemical
- Design: 0.1 mg/mL human liver microsomes
- Condition Info: read-out: IC50 (Testo.)
Hi! Could you tag entries with IC50 below 20 nM as condition met, and those at or above as condition not met? Much appreciated.

Reference set (5 entries):
Input line: Would you kindly verify if IC50 of CC(C)(CO)NC(=O)c1ccccc1S(=O)(=O)Nc1cccnc1 is strictly less than 20 nM?
Output line: condition not met

Input line: // query: CCCN(CC1CC1)C(=O)c1ccccc1S(=O)(=O)Nc1cncc(C)c1
Output line: condition met

Input line: Do the same for Cc1cncc(NS(=O)(=O)c2ccccc2C(=O)NCc2ccc(Cl)c(Cl)c2)c1 please
Output line: condition not met

Input line: Item: COc1cncc(NS(=O)(=O)c2ccccc2C(=O)NCCOC(C)C)c1
Output line: condition not met

Input line: Here is the next molecule: COc1cncc(NS(=O)(=O)c2ccccc2C(=O)NCCCc2ccccc2)c1
Output line: condition met

Others:
Input line: Consider the molecule Cc1ccncc1NS(=O)(=O)c1ccccc1C(=O)NCc1ccc(F)c(F)c1 . Is its IC50 strictly less than 20 nM?
Output line: condition met

Input line: Param item: CCOCCNC(=O)c1ccccc1S(=O)(=O)Nc1cncc(C)c1
Output line: condition not met

Input line: And then Cc1cncc(NS(=O)(=O)c2ccccc2C(=O)N(C)CCc2ccccc2)c1 , what is it?
Output line: condition met

Input line: Same read-out for COc1cncc(NS(=O)(=O)c2ccc(OCCCN(C)C)cc2C(=O)N(C)C(C)C)c1 ?
Output line: condition not met

###

- System: CYP3A4 (Homo sapiens, UniProt P08684)
- Protocol Details: Determination of IC50 against CYP3A4 by measurement of inhibition of testosterone metabolism (human liver microsomes, 6-β-OH-testosterone by LC-MS/MS)
- Format: biochemical
- Parameters: 0.1 mg/mL human liver microsomes
- Condition Info: read-out: IC50 (Testo.)
Readout: IC50

Below are worked cases with known answers.
Input line: Reported IC50, compound O=C(NCc1cccc(OC(F)F)c1)c1ccccc1S(=O)(=O)Nc1cccnc1 [Example 71] : ____
Output line: < 3 nM

Input line: And what about the compound C[C@@H]1CN(C(=O)c2ccccc2S(=O)(=O)Nc2cccnc2)C[C@H](C)O1 [Example 27] ?
Output line: > 750 nM

Here are 2 compounds. What values of IC50 were reported for them?
1. O=C(c1ccccc1S(=O)(=O)Nc1cccnc1)N1CC2(CCNCC2)C1 [Example 7]
2. COc1ccccc1CNC(=O)c1ccccc1S(=O)(=O)Nc1cccnc1 [Example 90]

Output line:
> 750 nM
36 nM

###

- System: CYP3A4 (Homo sapiens)
- Protocol Details: Determination of compound Kiapp against recombinant CYP3A4 enzyme (BFC fluorescent substrate)
- Assay type: biochemical
- Condition Info: Baculo. enzyme preparation, read-out: Kiapp (BFC, Baculo.)
Readout: Ki (nM)
Give bare numbers, in nM.

Input line: I would be grateful if you could share the reported Ki for CC[C@H](C)CNC(=O)c1ccccc1S(=O)(=O)Nc1cncc(OC)c1 .
Output line: 124

Input line: Another: COc1cncc(NS(=O)(=O)c2ccccc2C(=O)NCc2c(F)cccc2F)c1
Output line: 105

New cases:
Input line: Request the reported Ki associated with CN(c1cccnc1)S(=O)(=O)c1ccccc1C(=O)NCc1ccc(F)c(F)c1
Output line: 86.4

###

- System: UniProt P08684
- Protocol Details: Determination of compound Kiapp against recombinant CYP3A4 enzyme (BFC fluorescent substrate)
- Type: biochemical
- Condition Info: Super. enzyme preparation, read-out: Kiapp (BFC, Super.)
Readout: Ki (nM)
Give bare numbers, in nM.

Input line: // lookup Ki | system=UniProt P08684 | key= CCCCCN(C)C(=O)c1ccccc1S(=O)(=O)Nc1cnccc1OC
Output line: 11.9

Provide Ki for all items below, preserving their order.
1. CCOc1ccncc1NS(=O)(=O)c1ccccc1C(=O)N[C@H](C)C(C)C
2. COc1cncc(NS(=O)(=O)c2ccccc2C(=O)NCCc2cccc(Cl)c2)c1
3. COc1ccc(CNC(=O)c2ccccc2S(=O)(=O)Nc2cccnc2)cc1
4. COc1cncc(NS(=O)(=O)c2ccccc2C(=O)NCc2cc(F)cc(F)c2)c1

Output line:
[50.4, 6.4, 35, 5.9]

###

- System: CYP3A4 (Homo sapiens, UniProt P08684)
- Protocol Details: Determination of IC50 against CYP3A4 by measurement of inhibition of testosterone metabolism (human liver microsomes, 6-β-OH-testosterone by LC-MS/MS)
- Type: biochemical
- Parameters: 0.1 mg/mL human liver microsomes
- Condition Info: read-out: IC50 (Testo.)
Please go through the items and note down their IC50.

Input line: Consider the compound COc1cc(CNC(=O)c2ccccc2S(=O)(=O)Nc2cccnc2)cc(OC)c1 and give its measured IC50.
Output line: 57 nM

Input line: What do we get for COc1cncc(NS(=O)(=O)c2ccc(F)cc2C(=O)N2CCCC(C)C2)c1 (stereo not shown) ?
Output line: 216 nM

Input line: What would you report for COc1cncc(NS(=O)(=O)c2ccccc2C(=O)NCc2cccc(Cl)c2)c1 ?
Output line: 7 nM

Input line: Query COc1cncc(NS(=O)(=O)c2ccccc2C(=O)NCCc2cc(F)ccc2F)c1 next
Output line: 18 nM

Input line: Okay, and COc1cncc(NS(=O)(=O)c2ccccc2C(=O)NC(C)c2ccc(Cl)cc2)c1 (stereo not shown) ?
Output line: 13 nM

Record IC50 per entry; entries follow.
1. COc1ccncc1NS(=O)(=O)c1ccccc1C(=O)NCCC(C)C
2. O=C(NCc1ccc(F)cc1)c1ccccc1S(=O)(=O)Nc1cccnc1
3. CCOc1cncc(NS(=O)(=O)c2ccccc2C(=O)N(C)Cc2ccc(F)c(F)c2)c1
4. COc1cncc(NS(=O)(=O)c2ccccc2C(=O)NC(C)(C)c2ccccc2)c1
5. COc1cncc(NS(=O)(=O)c2ccccc2C(=O)NCCC2CCCC2)c1
6. Cc1cncc(NS(=O)(=O)c2ccccc2C(=O)NCc2cc(Cl)cc(Cl)c2)c1
7. COc1cncc(NS(=O)(=O)c2ccccc2C(=O)N2CCOC(c3c(F)cccc3F)C2)c1 (stereo not shown)
8. COc1cncc(NS(=O)(=O)c2ccccc2C(=O)NC2CCCC2)c1

Output line:
1: 65 nM; 2: 9 nM; 3: 27 nM; 4: 64 nM; 5: 5 nM; 6: 15 nM; 7: 58 nM; 8: 66 nM

Each of the following entries comes with a recorded value; kindly state IC50 for each.
1. CN(c1cccnc1)S(=O)(=O)c1ccccc1C(=O)N1CCOCC1
2. Cc1ccc(CNC(=O)c2ccccc2S(=O)(=O)Nc2cnccc2C)cc1F

Output line:
1. 164 nM
2. 26 nM

Input line: I'd like to know its IC50. The compound in question is O=C(NCCc1ccccn1)c1ccccc1S(=O)(=O)Nc1cccnc1
Output line: 302 nM
